# SYSTEM_UNDER_TEST: UniProt:Q8NER1
# ASSAY_EXPLANATION: Human VR1 antagonist assay (Ca2+ imaging)
# CONDITION_SET: intracellular Ca2+ imaging (fura-2) in cells expressing human VR1 receptors; stimulus (capsaicin or acid) not given
READOUT_KIND: IC50 (nM)

Solved entries:
[[record]]
compound = "COc1cc(CNC(=O)c2ccc3nc(C(C)(C)C)ccc3c2)c(Br)cc1O"
number = 403

[[record]]
compound = "COc1cc([C@@H](C)NC(=O)c2ccc3nc(C(C)(C)C)ccc3c2)ccc1O"
number = 254

[[record]]
compound = "COc1cc(Cl)c([C@@H](C)NC(=O)c2ccc3cc(C(C)(C)C)ccc3c2)cc1C"
number = 93.5


a. COc1cc(Cl)c([C@@H](C)NC(=O)c2ccc3nc(C(C)(C)C)ccc3c2)cc1C
b. Cc1cc(CNC(=O)c2ccc3nc(C(C)(C)C)ccc3c2)c(F)cc1O
c. COc1cc(Cl)c([C@@H](C)NC(=O)c2ccc3nc(C(C)(C)C(F)(F)F)ccc3c2)cc1C
d. Cc1cc([C@@H](C)NC(=O)c2ccc3nc(C(C)(C)C(F)(F)F)ccc3c2)c(Cl)cc1O
e. COc1cc([C@@H](C)NC(=O)c2ccc3nc(C(C)(C)C)ccc3c2)c(Cl)cc1O [Example D1]
Challenge: Hey, quick one: sort these by IC50, largest value first please. Your task in answering is to list the labels in the requested order.
Response given: b, a, c, e, d
(b: 501 nM, a: 270 nM, c: 181 nM, e: 74.1 nM, d: 31.8 nM)

###

# SYSTEM_UNDER_TEST: human VR1 (Homo sapiens)
# Sequence (Q8NER1 whole entry): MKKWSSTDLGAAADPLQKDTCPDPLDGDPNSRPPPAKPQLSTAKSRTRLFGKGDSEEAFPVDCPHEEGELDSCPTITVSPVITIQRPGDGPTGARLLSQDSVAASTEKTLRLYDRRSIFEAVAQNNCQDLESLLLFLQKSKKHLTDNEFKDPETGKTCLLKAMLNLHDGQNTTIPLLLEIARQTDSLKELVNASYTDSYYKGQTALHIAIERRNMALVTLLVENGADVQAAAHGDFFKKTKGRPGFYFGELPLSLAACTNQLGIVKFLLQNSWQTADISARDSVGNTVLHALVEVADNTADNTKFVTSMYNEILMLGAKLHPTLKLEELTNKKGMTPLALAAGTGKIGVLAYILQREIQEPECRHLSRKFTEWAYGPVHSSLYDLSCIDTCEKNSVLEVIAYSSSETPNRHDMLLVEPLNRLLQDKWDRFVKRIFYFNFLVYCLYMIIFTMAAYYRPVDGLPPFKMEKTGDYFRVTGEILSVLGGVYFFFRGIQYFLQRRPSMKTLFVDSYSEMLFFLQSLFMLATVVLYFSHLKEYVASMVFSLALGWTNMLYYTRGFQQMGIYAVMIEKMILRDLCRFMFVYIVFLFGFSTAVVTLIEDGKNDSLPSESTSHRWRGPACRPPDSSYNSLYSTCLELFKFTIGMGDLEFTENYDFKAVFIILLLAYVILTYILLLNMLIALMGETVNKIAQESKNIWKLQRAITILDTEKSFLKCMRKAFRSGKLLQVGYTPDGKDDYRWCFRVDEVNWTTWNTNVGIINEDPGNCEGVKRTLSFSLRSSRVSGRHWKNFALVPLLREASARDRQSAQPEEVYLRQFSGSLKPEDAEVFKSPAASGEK
# ASSAY_EXPLANATION: Human VR1 antagonist assay (Ca2+ imaging)
# CONDITION_SET: intracellular Ca2+ imaging (fura-2) in cells expressing human VR1 receptors; stimulus (capsaicin or acid) not given
# Text: VR1 antagonistic activity can be determined by the Ca^2+ imaging assay using human VR1 highly expressing cells. The cells that highly express human VR1 receptors are obtainable from several different conventional methods. […] The capsaicin-induced changes in the intracellular calcium concentration were monitored using FDSS 6000 (Hamamatsu Photonics, Japan), a fluorometric imaging system. […]
READOUT_KIND: IC50 (nM)

I. Cc1cc([C@H](C)NC(=O)c2ccc3nc(C(C)(C)C)ccc3c2)c(Cl)cc1O
II. Cc1cc(C(C)NC(=O)c2ccc3nc(C(C)(C)C(F)(F)F)ccc3c2)c(F)cc1CO (stereo not shown)
Challenge: Input pair: I , II . Output: entry with lower IC50. Write down the label of the entry you select.
Response given: I

###

# SYSTEM_UNDER_TEST: human VR1 (Homo sapiens)
# ASSAY_EXPLANATION: Human VR1 antagonist assay (Ca2+ imaging)
# CONDITION_SET: intracellular Ca2+ imaging (fura-2) in cells expressing human VR1 receptors; stimulus (capsaicin or acid) not given
READOUT_KIND: IC50 (nM)

Solved entries:
[[record]]
compound = "Cc1cc(CNC(=O)c2ccc3nc(C(C)(C)C)ccc3c2)c(Cl)cc1O"
readout_kind = "IC50"
number = 311

[[record]]
compound = "COc1cc(CNC(=O)c2ccc3cc(C(C)(C)C)ccc3n2)c(Cl)cc1O"
readout_kind = "IC50"
number = 590

[[record]]
compound = "COc1cc(CNC(=O)c2ccc3nc(C(C)(C)C)ccc3c2)c(Cl)cc1O [Example D2]"
readout_kind = "IC50"
number = 176


a. Cc1cc([C@@H](C)NC(=O)c2ccc3cc(C(C)(C)C)ccc3c2)c(Cl)cc1O
b. Cc1cc([C@@H](C)NC(=O)c2cnc3cc(C(F)(F)F)ccc3c2)c(Cl)cc1O
Challenge: Input pair: a , b . Output: entry with lower IC50. Write down the label of the entry you select.
Response given: a
(a: 34.2 nM, b: 667 nM)

###

# SYSTEM_UNDER_TEST: human VR1 (Homo sapiens)
# ASSAY_EXPLANATION: Human VR1 antagonist assay (Ca2+ imaging)
# CONDITION_SET: intracellular Ca2+ imaging (fura-2) in cells expressing human VR1 receptors; stimulus (capsaicin or acid) not given
pIC50: −log10 of the molar value.
READOUT_KIND: pIC50

[[record]]
substance_smiles = "C[C@@H](NC(=O)c1ccc2nc(C(C)(C)C)ccc2c1)c1ccc(CO)cc1"
readout_kind = "pIC50"
number = 6.36

[[record]]
substance_smiles = "Cc1cc([C@@H](C)NC(=O)c2ccc3nc(C(C)(C)C)ccc3c2)c(Cl)cc1O"
readout_kind = "pIC50"
number = 6.48

